Give measured pIC50 for each item. Keep answers brief.
system: SRC (Homo sapiens)
Sequence (P12931 whole entry): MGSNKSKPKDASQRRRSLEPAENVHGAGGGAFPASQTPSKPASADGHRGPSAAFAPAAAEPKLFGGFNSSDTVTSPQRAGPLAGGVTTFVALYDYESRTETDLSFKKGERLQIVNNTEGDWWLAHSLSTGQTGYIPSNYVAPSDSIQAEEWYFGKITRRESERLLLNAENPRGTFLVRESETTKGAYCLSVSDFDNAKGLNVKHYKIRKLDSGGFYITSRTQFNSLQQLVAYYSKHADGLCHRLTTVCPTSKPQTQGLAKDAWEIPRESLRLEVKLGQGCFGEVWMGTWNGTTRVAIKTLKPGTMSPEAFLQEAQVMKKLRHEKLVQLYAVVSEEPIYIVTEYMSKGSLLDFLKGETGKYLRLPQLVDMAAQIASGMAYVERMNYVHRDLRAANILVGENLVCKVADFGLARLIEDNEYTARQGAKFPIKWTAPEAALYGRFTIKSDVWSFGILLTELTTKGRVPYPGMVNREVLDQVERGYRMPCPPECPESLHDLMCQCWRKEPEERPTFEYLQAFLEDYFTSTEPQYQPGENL
test.name: Inhibition of a panel of kinases, in vitro HotSpot kinase assay: SRC
Format: biochemical
test.settings: Table 13, A compounds; 1 μM ATP
pIC50: −log10 of the molar value.

pIC50 in this record for "C[C@@H]1[C@H](NC(=O)c2ccc(C3CC3)cc2F)CCCN1c1cnc(C(N)=O)c(Nc2ccc(C(=O)N3CCN(C)CC3)cc2)n1" : 6.00 to 7.00

pIC50 in this record for "C[C@@H]1[C@H](NC(=O)c2ccc(C3CC3)cc2F)CCCN1c1cnc(C(N)=O)c(Nc2cc(CN3CCOCC3)ns2)n1" : 7.00 to 8.00

pIC50 in this record for "C[C@@H]1[C@H](NC(=O)c2ccc(C3CC3)nc2)CCCN1c1cnc(C(N)=O)c(Nc2cnn(C)c2)n1" : 7.00 to 8.00

pIC50 in this record for "C[C@@H]1[C@H](NC(=O)c2ccc(C3CC3)c(Cl)c2)CCCN1c1cnc(C(N)=O)c(Nc2ccc(N3CCN(C)CC3)cc2)n1" : 6.00 to 7.00

pIC50 in this record for "CN(C)C(=O)N[C@@H]1CCCN(c2cnc(C(N)=O)c(Nc3ccc(C4(C)CCN(C5CCCC5)CC4)cc3)n2)[C@@H]1CO" : 6.00 to 7.00

pIC50 in this record for "Cc1cc(Nc2nc(N3CCC[C@@H](NC(=O)N4Cc5ccccc5C4=O)C3)cnc2C(N)=O)sn1" : 7.00 to 8.00
